Target: UniProt:A0A7U0FWW1
Sequence (A0A7U0FWW1 entry or part of it): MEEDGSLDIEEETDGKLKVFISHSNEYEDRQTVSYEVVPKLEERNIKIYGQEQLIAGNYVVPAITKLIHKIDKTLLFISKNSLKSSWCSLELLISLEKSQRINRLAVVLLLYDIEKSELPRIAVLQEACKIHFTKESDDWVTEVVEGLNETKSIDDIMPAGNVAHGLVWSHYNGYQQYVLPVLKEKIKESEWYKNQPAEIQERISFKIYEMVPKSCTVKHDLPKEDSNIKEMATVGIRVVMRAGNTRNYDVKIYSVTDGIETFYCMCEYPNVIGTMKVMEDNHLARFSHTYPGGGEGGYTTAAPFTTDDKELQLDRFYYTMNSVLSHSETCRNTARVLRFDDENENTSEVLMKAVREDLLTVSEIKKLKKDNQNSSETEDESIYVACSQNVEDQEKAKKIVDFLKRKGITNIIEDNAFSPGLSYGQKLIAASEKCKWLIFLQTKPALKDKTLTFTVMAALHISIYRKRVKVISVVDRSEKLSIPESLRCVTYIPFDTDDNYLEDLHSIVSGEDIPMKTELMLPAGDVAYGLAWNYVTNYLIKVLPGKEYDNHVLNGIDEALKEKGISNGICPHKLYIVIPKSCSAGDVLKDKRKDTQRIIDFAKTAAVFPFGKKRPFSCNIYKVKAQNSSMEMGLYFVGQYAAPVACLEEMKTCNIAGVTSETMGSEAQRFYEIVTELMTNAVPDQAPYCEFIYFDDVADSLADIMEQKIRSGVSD
Quantity kind: Kd
Please append the unit to your numeric answer.

Field Kd (entry "Nc1nc2c(ncn2[C@@H]2O[C@@H]3CO[P@](=O)(O)O[C@H]4[C@@H](O)[C@H](n5cnc6c(=O)[nH]c(N)nc65)O[C@@H]4CO[P@](=O)(O)O[C@H]3[C@H]2O)c(=O)[nH]1" ) reads 42.7 µM
